Can you tell me IC50 for the items I'm about to list?
Give a bare numeral; the unit nM is implied.

Exercise: # returns recorded IC50 (system: Matrix metalloproteinase-9 (Homo sapiens, UniProt P14780)) for COc1ccc(S(=O)(=O)N(Cc2ccccc2)c2c(C(=O)NO)cnc3ccc(Br)cc23)cc1
Sequence (P14780 whole entry): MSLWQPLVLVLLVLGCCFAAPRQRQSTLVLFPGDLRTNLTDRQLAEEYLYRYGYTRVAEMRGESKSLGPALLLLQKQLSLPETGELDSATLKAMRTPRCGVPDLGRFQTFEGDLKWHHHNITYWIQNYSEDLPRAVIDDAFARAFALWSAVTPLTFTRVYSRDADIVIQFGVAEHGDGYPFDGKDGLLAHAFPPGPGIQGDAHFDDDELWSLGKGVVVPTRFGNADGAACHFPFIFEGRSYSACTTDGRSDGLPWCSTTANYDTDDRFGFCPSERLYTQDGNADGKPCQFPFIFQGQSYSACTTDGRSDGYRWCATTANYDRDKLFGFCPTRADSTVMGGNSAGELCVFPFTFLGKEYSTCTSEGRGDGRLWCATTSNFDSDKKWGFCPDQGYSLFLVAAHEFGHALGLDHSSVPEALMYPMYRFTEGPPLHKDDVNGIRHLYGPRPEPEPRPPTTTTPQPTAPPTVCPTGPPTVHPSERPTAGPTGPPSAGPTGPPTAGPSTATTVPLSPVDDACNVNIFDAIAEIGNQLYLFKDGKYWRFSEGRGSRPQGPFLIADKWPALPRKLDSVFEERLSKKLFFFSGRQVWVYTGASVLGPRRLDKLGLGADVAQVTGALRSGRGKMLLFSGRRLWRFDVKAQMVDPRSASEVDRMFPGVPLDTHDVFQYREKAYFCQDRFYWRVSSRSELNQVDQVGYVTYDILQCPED
Solution: 8

Exercise: # returns recorded IC50 (system: Matrix metalloproteinase-9 (Homo sapiens, UniProt P14780)) for COc1ccc(S(=O)(=O)N(Cc2ccccc2)c2c(C(=O)NO)cnc3cc(Br)ccc23)cc1
Solution: 11

Exercise: # returns recorded IC50 (system: Matrix metalloproteinase-9 (Homo sapiens, UniProt P14780)) for Cc1nn(C)c2ncc(C(=O)NO)c(N(C)S(=O)(=O)c3ccc(F)cc3)c12
Solution: 595

Exercise: # returns recorded IC50 (system: Matrix metalloproteinase-9 (Homo sapiens, UniProt P14780)) for C=Cc1cccc2c(N(C)S(=O)(=O)c3ccc(OC)cc3)c(C(=O)NO)cnc12
Solution: 5

Exercise: # returns recorded IC50 (system: Matrix metalloproteinase-9 (Homo sapiens, UniProt P14780)) for O=C(NO)c1cnc2cc(C(F)(F)F)ccc2c1N(Cc1cccnc1)S(=O)(=O)c1ccc(-c2ccccc2)cc1
Solution: 1160

Exercise: # returns recorded IC50 (system: Matrix metalloproteinase-9 (Homo sapiens, UniProt P14780)) for CC#CCOc1ccc(S(=O)(=O)N(C)c2c(C(=O)NO)cnc3c2c(C)nn3C)cc1
Solution: 100

Exercise: # returns recorded IC50 (system: Matrix metalloproteinase-9 (Homo sapiens, UniProt P14780)) for CCCCOc1ccc(S(=O)(=O)N(C)c2c(C(=O)NO)cnc3c2c(C)nn3C)cc1
Solution: 7

====

Can you tell me pIC50 for the items I'm about to list?
assayed.system: Interstitial collagenase (Homo sapiens)
Sequence (P03956 whole entry): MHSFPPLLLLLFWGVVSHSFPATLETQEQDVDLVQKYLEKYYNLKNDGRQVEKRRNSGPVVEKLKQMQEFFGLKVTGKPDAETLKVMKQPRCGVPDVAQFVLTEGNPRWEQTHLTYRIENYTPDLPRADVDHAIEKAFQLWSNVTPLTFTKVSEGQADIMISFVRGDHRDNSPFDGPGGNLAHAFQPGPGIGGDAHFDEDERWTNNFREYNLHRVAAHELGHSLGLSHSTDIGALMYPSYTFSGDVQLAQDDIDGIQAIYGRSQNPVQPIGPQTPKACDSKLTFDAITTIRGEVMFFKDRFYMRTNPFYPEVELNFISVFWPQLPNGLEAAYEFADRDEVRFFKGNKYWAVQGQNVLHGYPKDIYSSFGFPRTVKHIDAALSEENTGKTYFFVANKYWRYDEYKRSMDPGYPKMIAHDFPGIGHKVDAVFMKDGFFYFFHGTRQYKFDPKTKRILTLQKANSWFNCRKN
Hey, just a heads up that pIC50 is the negative log base 10 of the concentration in molar.

Exercise: # pIC50 lookup, item COc1ccc(S(=O)(=O)N(Cc2cccnc2)c2c(C(=O)NO)cnc3c2c(C)nn3-c2ccccc2)cc1
Solution: 6.94

Exercise: # pIC50 lookup, item Cc1nn(C)c2ncc(C(=O)NO)c(N(C)S(=O)(=O)c3ccc(Oc4ccc(Cl)cc4)cc3)c12
Solution: 6.94

Exercise: # pIC50 lookup, item COc1ccc(S(=O)(=O)N(Cc2ccccc2)c2c(C(=O)NO)cnc3ccc(Br)cc23)cc1
Solution: 6.97

Exercise: # pIC50 lookup, item COc1ccc(S(=O)(=O)N(Cc2cccnc2)c2c(C(=O)NO)cnc3c(-c4cccs4)cccc23)cc1
Solution: 6.87

Exercise: # pIC50 lookup, item CN(c1c(C(=O)NO)cnc2ccccc12)S(=O)(=O)c1ccc(Oc2ccncc2)cc1
Solution: 5.99

Exercise: # pIC50 lookup, item CCCCOc1ccc(S(=O)(=O)N(C)c2c(C(=O)NO)cnc3c2c(C)nn3C)cc1
Solution: 5.72

Exercise: # pIC50 lookup, item C=Cc1cccc2c(N(C)S(=O)(=O)c3ccc(OC)cc3)c(C(=O)NO)cnc12
Solution: 6.70
